# RUN DESCRIPTION: HTB85 osteosarcoma cell growth inhibition, synergistic combos for chromothripsis tumors, BGB or cisplatin IC20 combos (AID 1671453);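 note: cells exposed for 96 hours before readout; 0% = vehicle DMSO and 100% = high DMSO killing control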
# SETUP CONDITIONS: HTB85 osteosarcoma cells, drug combinations, measured here: with BGB IC20, at 5 µM, stronger effect = higher value
Provide the recorded inhibition for the entries that follow.
Remember to follow the number with its unit.

Look over these answered cases.
{"COMPOUND": "O=c1[nH]c(=O)n([C@H]2C[C@H](O)[C@@H](CO)O2)cc1Br", "REPORTED MEASUREMENT": "-8.79%"}
{"COMPOUND": "CN1CCN(c2c(F)cc3c(=O)c(C(=O)O)cn(CCF)c3c2F)CC1", "REPORTED MEASUREMENT": "4.56%"}
{"COMPOUND": "O=C(CCCCCCC(=O)Nc1ccccc1)NO", "REPORTED MEASUREMENT": "80.9%"}

Value sought for every listed compound: inhibition.
1. CN1C[C@@H]2C[C@H]1CN2c1cc2c(cc1F)c(=O)c(C(=O)O)cn2C1CC1
2. CN1CCN(c2c(F)cc3c(=O)c(C(=O)O)cn4c3c2OCN4C)CC1
3. O=c1cc[nH]c(=O)[nH]1
4. CC1(C(=O)O)CCC2(C)CCC3(C)C(=CC(=O)C4C5(C)CCC(OC(=O)CCC(=O)O)C(C)(C)C5CCC43C)C2C1 (stereo unspecified)
5. C[C@@H](CN1CC(=O)NC(=O)C1)N1CC(=O)NC(=O)C1
6. COC1C(OC(N)=O)C(O)C(Oc2ccc3c(O)c(NC(=O)c4ccc(O)c(CC=C(C)C)c4)c(=O)oc3c2C)OC1(C)C (stereo unspecified)
7. N=C(N=C(N)N)N1CCOCC1
8. CCOC(=O)Nc1ccc(NCc2ccc(F)cc2)nc1N

Result:
1: -64.1%; 2: -21.7%; 3: -35.2%; 4: -13.2%; 5: -21.1%; 6: 20.3%; 7: -31%; 8: 10.9%
